Tested on: Escherichia coli;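 note: escherichia coli cells, read-out is the rate of enhanced [3H]DHS uptake, C50 being the level that yields half of the maximal rate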
Record form. Attribute: C50. Fill in for each entry.
Answers are plain numbers, in µM.

Worked examples, 2 compounds total:
{"columns": ["entry_smiles", "display_unit", "val"],
 "data": [
  ["NC[C@@H]1O[C@H](O[C@H]2[C@@H](O)[C@H](O[C@@H]3[C@@H](O)[C@H](N)C[C@H](N)[C@H]3O[C@H]3O[C@H](CO)[C@@H](O)[C@H](O)[C@H]3N)O[C@@H]2CO)[C@H](N)[C@@H](O)[C@@H]1O", "µM", 0.32],
  ["CN[C@@H]1[C@@H](O)[C@@H](O[C@@H]2[C@@H](O)[C@H](O[C@H]3O[C@H]([C@@H](C)NC)CC[C@H]3N)[C@@H](N)C[C@H]2N)OC[C@]1(C)O", "µM", 0.21]
]}

Then this compound:
C50 reading for "NC[C@H]1O[C@H](O[C@@H]2[C@@H](O)[C@H](O[C@@H]3[C@H](O)[C@H](N)C[C@@H](N)[C@H]3O[C@H]3O[C@@H](CO)[C@@H](O)C[C@@H]3N)O[C@@H]2CO)[C@@H](N)[C@@H](O[C@H]2O[C@H](CO)[C@@H](O)[C@H](O)[C@@H]2O)[C@@H]1O" : 0.57
